- ASSAYED_TARGET: human CD33 P175A (human, UniProt P20138 18-364)
- Sequence (P20138 18-364 P175A limits assumed): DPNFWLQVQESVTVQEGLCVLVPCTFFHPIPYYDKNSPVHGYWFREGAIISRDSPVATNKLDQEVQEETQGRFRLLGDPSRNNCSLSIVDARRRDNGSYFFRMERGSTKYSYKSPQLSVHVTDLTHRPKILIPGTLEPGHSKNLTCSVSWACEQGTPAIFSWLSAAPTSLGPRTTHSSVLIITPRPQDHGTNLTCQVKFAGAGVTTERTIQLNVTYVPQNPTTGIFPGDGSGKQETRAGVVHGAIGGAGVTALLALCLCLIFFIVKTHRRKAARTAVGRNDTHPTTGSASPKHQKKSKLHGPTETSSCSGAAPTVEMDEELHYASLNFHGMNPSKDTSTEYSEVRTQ
- ASSAY_NOTES: alanine scan, flow cytometry, HEK293-T;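 note: antibody binding to each alanine-substituted CD33 mutant expressed transiently in HEK293-T, read as fluorescence minus background, mean of duplicates, relative to wild-type CD33 set as 100%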
Collected Mean % WT Binding values appear next to each entry.
OBSERVABLE: Mean % WT Binding (%)

INSERT INTO assay_data (binder, observable, experimental_value) VALUES
  ('Refmab #3 (antibody, V domains shown, In the alanine scan antibodies were used as IgG or Fab) VH: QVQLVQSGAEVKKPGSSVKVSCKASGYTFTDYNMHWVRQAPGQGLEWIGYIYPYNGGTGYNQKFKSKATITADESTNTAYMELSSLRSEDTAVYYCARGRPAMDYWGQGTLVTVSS VL: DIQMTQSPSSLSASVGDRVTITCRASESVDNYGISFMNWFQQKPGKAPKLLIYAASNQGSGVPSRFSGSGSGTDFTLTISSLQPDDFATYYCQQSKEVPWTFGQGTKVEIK', 'Mean % WT Binding', 106),
  ('Refmab #1 (antibody, V domains shown, In the alanine scan antibodies were used as IgG or Fab; also called hP67.6) VH: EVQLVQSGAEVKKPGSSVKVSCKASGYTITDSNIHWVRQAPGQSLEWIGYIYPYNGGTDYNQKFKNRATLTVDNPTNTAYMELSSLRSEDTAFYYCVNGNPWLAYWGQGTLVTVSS VL: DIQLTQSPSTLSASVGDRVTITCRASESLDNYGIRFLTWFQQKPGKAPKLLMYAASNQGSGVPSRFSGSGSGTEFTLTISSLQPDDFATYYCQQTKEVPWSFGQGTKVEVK', 'Mean % WT Binding', 89.4),
  ('Refmab #2 (antibody, V domains shown, In the alanine scan antibodies were used as IgG or Fab) VH: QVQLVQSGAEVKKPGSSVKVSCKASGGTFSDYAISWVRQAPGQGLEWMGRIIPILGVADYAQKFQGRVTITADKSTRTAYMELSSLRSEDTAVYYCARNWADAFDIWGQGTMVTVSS VL: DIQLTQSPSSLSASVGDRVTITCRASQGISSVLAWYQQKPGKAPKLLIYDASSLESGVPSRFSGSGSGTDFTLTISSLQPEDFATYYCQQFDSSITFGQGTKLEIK', 'Mean % WT Binding', 103),
  ('Refmab #4 (antibody, V domains shown, In the alanine scan antibodies were used as IgG or Fab) VH: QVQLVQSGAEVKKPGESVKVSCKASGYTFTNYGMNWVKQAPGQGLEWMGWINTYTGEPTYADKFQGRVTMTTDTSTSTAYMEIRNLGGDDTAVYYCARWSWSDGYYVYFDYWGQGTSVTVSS VL: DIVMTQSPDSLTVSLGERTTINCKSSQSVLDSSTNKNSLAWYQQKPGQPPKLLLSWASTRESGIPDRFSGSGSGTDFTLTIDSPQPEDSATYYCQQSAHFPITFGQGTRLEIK', 'Mean % WT Binding', 106);
